Record form. Attribute: pKi. Fill in for each entry.
Biological target: Carbonic anhydrase 2 (Homo sapiens)
pKi here: minus log base 10 of the concentration, concentration in moles per litre.

Using the record for "Cc1nn(C)c2nnc(Nc3ccc(S(N)(=O)=O)cc3)nc12" , report its pKi.
8.10

Next entry: "Cc1nn(C)c2nnc(Nc3ccc(S(=O)(=O)N4CCCNCC4)cc3)nc12"
6.04

Next entry: "Cc1nn(C)c2nnc(Nc3ccc(S(=O)(=O)N4CCCC4)cc3)nc12"
8.20

Next entry: "Cc1nn(C)c2nnc(Nc3ccc(S(=O)(=O)N4CCNCC4)cc3)nc12"
6.15

Next entry: "Cc1nn(C)c2nnc(Nc3ccc(S(=O)(=O)NCCO)cc3)nc12"
6.11

Next entry: "Cc1nn(C)c2nnc(Nc3ccccc3)nc12"
6.08
